Answer each item with its documented pEC50.
- tgt: fMet-Leu-Phe receptor (Homo sapiens)
- Sequence (P21462 whole entry): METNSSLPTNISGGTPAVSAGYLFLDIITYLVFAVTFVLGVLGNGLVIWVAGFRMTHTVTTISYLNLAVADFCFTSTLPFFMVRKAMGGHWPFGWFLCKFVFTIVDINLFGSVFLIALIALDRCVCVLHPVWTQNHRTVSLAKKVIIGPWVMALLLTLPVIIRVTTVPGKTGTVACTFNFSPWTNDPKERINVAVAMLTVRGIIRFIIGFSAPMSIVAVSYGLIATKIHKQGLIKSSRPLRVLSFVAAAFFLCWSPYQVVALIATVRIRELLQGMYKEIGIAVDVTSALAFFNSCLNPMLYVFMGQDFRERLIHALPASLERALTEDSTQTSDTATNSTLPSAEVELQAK
- measurement-notes: Agonist activity at human FPR1 transfected in human HL60 cells assessed as stimulation of Ca2+ influx measured every 5 secs for 240 secs by FLIPR assay
- Format: functional, cell-based, HL-60
- test-settings: read-out: EC50
Here pEC50 is given on a logarithmic scale as minus log10 of the concentration in mol/L.

In: Please report the recorded pEC50 for COc1ccc(NC(=O)N[C@@H](Cc2c[nH]c3ccccc23)C(=O)NCC2(c3ccccn3)CCCCC2)cc1 .
Out: 6.02

In: What value of measured pEC50 is listed for COc1ccc(NC(=O)N[C@@H](Cc2c[nH]c3ccccc23)C(=O)NCC2(c3ccc(OC)cn3)CCCCC2)cc1 ?
Out: 6.37

###

- tgt: N-formyl peptide receptor 2 (Homo sapiens)
- measurement-notes: Agonist activity at FPR2 in human PMN assessed as stimulation of Ca2+ influx measured every 5 secs for 240 secs by FLIPR assay relative to fMLF in presence of probenecid
- Format: functional
Consider the following compounds; for each one, report its Efficacy.
Write down the numeric answer in % and omit the unit.

In: Item COc1ccc(NC(=O)N[C@@H](Cc2c[nH]c3ccccc23)C(=O)NCC2(c3cccnc3)CCCCC2)cc1 has what recorded Efficacy?
Out: 105

In: Please give the measured Efficacy for this compound: COc1ccc(NC(=O)N[C@H](Cc2c[nH]c3ccccc23)C(=O)NCC2(c3ccc(OC)cn3)CCCCC2)cc1
Out: 95

In: Entry COc1ccc(NC(=O)N[C@H](Cc2c[nH]c3ccccc23)C(=O)NCC2(c3ccccc3)CCCCC2)cc1 : reported Efficacy = ?
Out: 40

In: If you can, please state the reported Efficacy value of COc1ccc(NC(=O)N[C@H](Cc2c[nH]c3ccccc23)C(=O)NCC2(c3ccccn3)CCCCC2)cc1 .
Out: 115

In: Query (compound): COc1ccc(NC(=O)N[C@@H](Cc2c[nH]c3ccccc23)C(=O)NCC2(c3ccc(OC)cn3)CCCCC2)cc1 ; field requested: Efficacy
Out: 105

In: Name the reported Efficacy value associated with the compound COc1ccc(NC(=O)N[C@@H](Cc2c[nH]c3ccccc23)C(=O)NCC2(c3ccc(F)cc3)CCCCC2)cc1
Out: 55

In: Requested read-out: Efficacy. Entry: COc1ccc(NC(=O)N[C@@H](Cc2c[nH]c3ccccc23)C(=O)NCC2(c3ccnc(F)c3)CCCCC2)cc1
Out: 130

In: Fill blank: measured Efficacy of the compound COc1ccc(NC(=O)N[C@@H](Cc2c[nH]c3ccccc23)C(=O)NCC2(c3ccccn3)CCCCC2)cc1 is ____.
Out: 120

###

Please go through the items and note down their Efficacy.
- tgt: N-formyl peptide receptor 2 (Homo sapiens)
- measurement-notes: Agonist activity at human FPR2 transfected in human HL60 cells assessed as stimulation of Ca2+ influx measured every 5 secs for 240 secs by FLIPR assay relative to WKYMVm
- Assay type: functional, cell-based
- test-settings: HL-60
Entry rule: numbers only, all in %.

In: Returns the measured Efficacy for the input compound. Input: COc1ccc(NC(=O)N[C@@H](Cc2c[nH]c3ccccc23)C(=O)NCC2(c3ccc(F)cc3)CCCCC2)cc1
Out: 40

In: I have this compound here, COc1ccc(NC(=O)N[C@H](Cc2c[nH]c3ccccc23)C(=O)NCC2(c3ccccn3)CCCCC2)cc1 , and I need its recorded Efficacy.
Out: 90

In: Please give the measured Efficacy for this compound: COc1ccc(NC(=O)N[C@H](Cc2c[nH]c3ccccc23)C(=O)NCC2(c3ccccc3)CCCCC2)cc1
Out: 65

In: Returns the measured Efficacy for the input compound. Input: COc1ccc(NC(=O)N[C@@H](Cc2c[nH]c3ccccc23)C(=O)NCC2(c3ccccn3)CCCCC2)cc1
Out: 135

###

Exercise: for every item that follows, state its recorded CLH.
- Tested on: Liver microsome
- test-settings: rat, microsomes, 1 µM
Number only, in µL/min/mg; omit the unit.

In: I am curious: what CLH value has been reported for COc1ccc(NC(=O)N[C@H](Cc2c[nH]c3ccccc23)C(=O)NCC2(c3ccc(OC)cn3)CCCCC2)cc1 ?
Out: 1290.6

In: Would you kindly share the measured CLH for COc1ccc(C2(CNC(=O)[C@](C)(Cc3c[nH]c4ccccc34)NC(=O)Nc3ccc([N+](=O)[O-])cc3)CCCCC2)nc1 ?
Out: 314.1

In: Suppose we examine the compound O=C(O)Cc1ccccc1Nc1c(Cl)cccc1Cl ; what CLH value has been reported?
Out: 159.8

In: Entry under review: COc1ccc(NC(=O)N[C@@H](Cc2c[nH]c3ccccc23)C(=O)NCC2(c3ccccn3)CCCCC2)cc1 . Reported CLH?
Out: 2173.4

In: Give the measured CLH of COc1ccc(NC(=O)N[C@H](Cc2c[nH]c3ccccc23)C(=O)NCC2(c3ccccn3)CCCCC2)cc1 .
Out: 2476

In: // returns reported CLH for input COc1ccc(NC(=O)N[C@@H](Cc2c[nH]c3ccccc23)C(=O)NCC2(c3ccc(OC)cn3)CCCCC2)cc1
Out: 1162.4

###

- tgt: N-formyl peptide receptor 2 (Homo sapiens)
- Sequence (P25090 whole entry): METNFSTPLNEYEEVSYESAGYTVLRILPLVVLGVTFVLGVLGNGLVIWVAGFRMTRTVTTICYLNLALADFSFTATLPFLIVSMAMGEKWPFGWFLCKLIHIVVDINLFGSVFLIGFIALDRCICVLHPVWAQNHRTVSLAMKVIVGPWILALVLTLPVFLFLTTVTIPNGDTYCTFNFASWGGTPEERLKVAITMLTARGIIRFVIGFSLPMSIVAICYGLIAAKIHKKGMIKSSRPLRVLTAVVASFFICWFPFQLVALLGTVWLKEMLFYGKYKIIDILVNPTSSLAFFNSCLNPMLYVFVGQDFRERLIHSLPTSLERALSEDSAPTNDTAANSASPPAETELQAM
- measurement-notes: Agonist activity at human FPR2 transfected in human HL60 cells assessed as stimulation of Ca2+ influx measured every 5 secs for 240 secs by FLIPR assay
- Type: functional, cell-based, HL-60
- test-settings: read-out: EC50
Please assign F whenever EC50 is at or above 400 nM, and T whenever it is below.

In: Bench note: check whether COc1ccc(NC(=O)N[C@@H](Cc2c[nH]c3ccccc23)C(=O)NCC2(c3ccc(F)cc3)CCCCC2)cc1 shows EC50 below 400 nM
Out: F

In: Below 400 nM on EC50? Entry COc1ccc(NC(=O)N[C@@H](Cc2c[nH]c3ccccc23)C(=O)NCC2(c3ccnc(F)c3)CCCCC2)cc1
Out: F

In: Strictly below 400 nM in EC50? COc1ccc(NC(=O)N[C@@H](Cc2c[nH]c3ccccc23)C(=O)NCC2(c3ccccn3)CCCCC2)cc1
Out: F

In: Lab note: confirm whether the reported EC50 for this molecule is below 400 nM, equality not counting. molecule: COc1ccc(NC(=O)N[C@@H](Cc2c[nH]c3ccccc23)C(=O)NCC2(c3cccnc3)CCCCC2)cc1
Out: F

In: Does COc1ccc(NC(=O)N[C@H](Cc2c[nH]c3ccccc23)C(=O)NCC2(c3ccccc3)CCCCC2)cc1 have EC50 strictly under 400 nM?
Out: T

In: hey, is EC50 for COc1ccc(NC(=O)N[C@H](Cc2c[nH]c3ccccc23)C(=O)NCC2(c3ccccn3)CCCCC2)cc1 lower than 400 nM or not?
Out: T
